Where do the numbers come from? From the kinase profiling compilation of Christmann-Franck et al. (2016).

molecular target: RPS6KA2 KD2 (human); test: KINOMEscan competition binding; conditions: compound 10.0 µM
I'd appreciate it if you marked entries Satisfied when kinase still bound, per cent of control is lower than 20% and Not satisfied when it is not.

Lab note: confirm whether the reported kinase still bound, per cent of control for this compound is below 20%, equality not counting. compound: `CSC1=NC(=O)/C(=C/c2ccc(-c3ccc(S(N)(=O)=O)cc3)o2)S1`
Satisfied

***
Lab note: confirm whether the reported kinase still bound, per cent of control for this compound is below 20%, equality not counting. compound: `N=C1NC(=O)/C(=C/c2ccc(-c3cncc4ccccc34)o2)S1`
Satisfied

Lab note: confirm whether the reported kinase still bound, per cent of control for this compound is below 20%, equality not counting. compound: `COc1cc(C(=O)NC2CCN(C)CC2)ccc1Nc1ncc2c(n1)N(CCc1ccccc1)CCC(=O)N2C`
Not satisfied

Lab note: confirm whether the reported kinase still bound, per cent of control for this compound is below 20%, equality not counting. compound: `COc1cc(C(=O)NC2CCN(C)CC2)ccc1Nc1ncc2c(n1)N(C1CCCC1)CCC(=O)N2C`
Satisfied

Lab note: confirm whether the reported kinase still bound, per cent of control for this compound is below 20%, equality not counting. compound: `CN1CCN(c2ccc(C(=O)Nc3ncc4c(n3)N(C)c3ccccc3C(=O)N4C)cc2)CC1`
Not satisfied

Lab note: confirm whether the reported kinase still bound, per cent of control for this compound is below 20%, equality not counting. compound: `COc1cc(N2CCC(O)CC2)ccc1Nc1ncc2c(n1)N(C)c1ccccc1C(=O)N2C`
Not satisfied

---

target: UniProt:P24723; experiment: KINOMEscan competition binding; details: compound 10.0 µM
Sequence (P24723 whole entry, looked up): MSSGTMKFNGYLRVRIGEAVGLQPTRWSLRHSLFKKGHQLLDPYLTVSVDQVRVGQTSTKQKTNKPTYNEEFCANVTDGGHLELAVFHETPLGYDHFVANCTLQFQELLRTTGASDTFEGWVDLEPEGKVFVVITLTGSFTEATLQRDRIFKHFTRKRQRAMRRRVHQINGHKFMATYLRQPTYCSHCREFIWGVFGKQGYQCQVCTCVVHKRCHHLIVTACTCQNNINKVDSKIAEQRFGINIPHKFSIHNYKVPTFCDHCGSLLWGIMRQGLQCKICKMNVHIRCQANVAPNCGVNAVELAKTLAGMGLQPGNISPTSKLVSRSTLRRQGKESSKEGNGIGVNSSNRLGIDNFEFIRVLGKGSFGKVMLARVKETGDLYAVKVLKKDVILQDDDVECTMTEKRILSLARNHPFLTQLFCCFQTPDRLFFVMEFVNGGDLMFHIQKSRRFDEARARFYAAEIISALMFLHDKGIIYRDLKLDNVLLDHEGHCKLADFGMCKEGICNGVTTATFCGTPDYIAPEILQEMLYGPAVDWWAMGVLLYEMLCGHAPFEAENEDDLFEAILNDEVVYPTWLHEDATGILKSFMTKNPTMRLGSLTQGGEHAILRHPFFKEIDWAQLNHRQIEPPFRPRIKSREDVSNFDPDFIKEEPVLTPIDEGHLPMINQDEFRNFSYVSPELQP
Below, each entry is listed with its recorded kinase still bound, per cent of control.
Record the value in %, omitting the unit from your answer.

# return recorded kinase still bound, per cent of control for input `O=C1NC(=O)/C(=C/c2c[nH]c(=O)c(-c3ccc(N4CCNCC4)nc3)c2)S1`
100

# return recorded kinase still bound, per cent of control for input `CN1CCN(c2ccc(C(=O)Nc3ncc4c(n3)N(C)c3ccccc3C(=O)N4C)cc2)CC1`
95

# return recorded kinase still bound, per cent of control for input `CN1C(=O)c2ccccc2N(C)c2nc(Nc3ccc(N4CCC(O)CC4)cc3)ncc21`
100

# return recorded kinase still bound, per cent of control for input `COc1cc(N2CCC(O)CC2)ccc1Nc1ncc2c(n1)N1CCc3cccc(c31)C(=O)N2C`
100

---

Below, each entry is listed with its recorded kinase still bound, per cent of control.
target: RIPK1 (human); assay: KINOMEscan competition binding; settings: compound 10.0 µM
Record the value in %, omitting the unit from your answer.

Below, each entry is followed by its recorded kinase still bound, per cent of control result.
# return recorded kinase still bound, per cent of control for input `CN1C(=O)c2ccccc2N(C)c2nc(NS(=O)(=O)c3ccc(N)cc3)ncc21`
100

# return recorded kinase still bound, per cent of control for input `CN1C(=O)c2ccccc2N(C)c2nc(Nc3ccc(N4CCC(O)CC4)cc3)ncc21`
100

Okay, now this compound:
# return recorded kinase still bound, per cent of control for input `CN1CCN(c2ccc(C(=O)Nc3ncc4c(n3)N(C)c3ccccc3C(=O)N4C)cc2)CC1`
100

---

target: TGFBR2 (human); test: KINOMEscan competition binding; settings: compound 10.0 µM
I'd appreciate it if you marked entries T when kinase still bound, per cent of control is lower than 20% and F when it is not.

Lab note: confirm whether the reported kinase still bound, per cent of control for this compound is below 20%, equality not counting. compound: `N=C1NC(=O)/C(=C/c2ccc(-c3ccc4c(C(=O)Nc5ccc(N6CCNCC6)cc5)cccc4c3)o2)S1`
T
